# Tested on: gene editing with dCas9
# assayInfo: Screen of 322 new SSAP proteins, gene editing activity with dCas9 (Table 5)
# Format: cell-based
# testParameters: normalized
dCas9 with SSAP activity (normalized) values for the molecules below.

{"molecule": "SSAP_5: SEQ ID NO: 174 (protein) ANELGIFSVDNLNMTTIKQYLDGGGKASDAELVLLINLCKQNNMNPFMKEVYFIKYGNQPAQIVVSRDFYRKRAFQNPNFVGIEVGVIVLNKDGVLEHNEGTFKTHEQELVGAWARVHLKNTEIPVYVAVSYDEYVQMKDGHPNKMWTNKPCTMLGKVAESQALRMAFPAEFSGTYGEEEYPEPEKEPREVNGVKEPDRAQIESFDKEDYAAKKIEELKEKAQPQKEVVEETGEVIDEEPLEGF", "dCas9 with SSAP activity (normalized)": "−0.392"}
{"molecule": "SSAP_206: SEQ ID NO: 375; Actinopolyspora xinjiangensis (protein, listed as Actinopolyspora xinjiangensis) TGQTIGTAVAKKDDENPSAIIATNRADLARVMPSHVRTDSWVRIAQGIVRRDKNLAHAARQSPGTLMVALMEAARLGLEPGTEQYYLTPRKNKGKPEVLGIPGYQGLIELMYRSGAVSSVVVETVRENDTFQWAPGRMERPEHEADWFAINGERGQLRGVYAYAIMSNGATSKVVVLNRNDIARARDSAQGADSEHSPWKNHEEAMWLKTAARRLAKWVPTSTEDRRIVQGVAERSDQPTEAPLDLTDEPDTDQPIEGELVDEEATQ", "dCas9 with SSAP activity (normalized)": "−0.671"}

Reference source: patent US20250034594A1
